Source: PubChem BioAssay

experiment: basal HepG2 mitochondrial membrane potential changes, profiling panel, cell-based, JC-1 fluorescence, 24 h, 100 nL compound (AID 1167); conditions: higher = more signal; also: test concentration not given here
quantity: z-score
One number for each entry.

Incoming: Need z-score of C=CC(CO)NC(=O)OCC1c2ccccc2-c2ccccc21 (stereo unspecified) , thanks.
Outgoing: -0.692

Incoming: Need z-score of "CCOC(=O)C1=C[C@@H](C(C)(C)C)N(S(=O)(=O)c2ccc(C)cc2)[C@H]1c1ccccc1Cl" , thanks.
Outgoing: 3.95

Provide the reported z-score of each entry below, same order.
1. COC(=O)[C@@]1(Cc2ccc(F)cc2)[C@H]2c3cc(C(=O)N4CCCC4)n(CCO)c3C[C@H]2CN1C(=O)c1ccccc1
2. COC(=O)[C@H](Cc1ccc(O)cc1)N1CC2=CCCC=C[C@@H]2[C@H]1[C@H](O)Cc1ccccc1
3. COCC(=C=CC[C@@H](O)c1ccc(OCCO)cc1)C[C@@H](O)COCc1ccccc1
4. COCCCNC(=O)[C@@]1(Sc2ccc(C)cc2)CC(=O)N(C2CCCCC2)[C@@H]1c1ccc(CO)cc1I
5. COC(=O)[C@@]1(Cc2ccc(F)cc2)[C@H]2c3cc(C(=O)N(C)C)n(CCn4cc([N+](=O)[O-])nc4C)c3C[C@H]2CN1C(=O)c1ccccc1
6. CC(C)C(=C=CC[C@@H](O)c1cccc(OCCO)c1)CCO
7. C=CC[C@]1(C(=O)NCc2ccccc2)COC(c2ccc(OCCCO)cc2)=N1

Outgoing:
1.04
-1.68
-1.77
0.634
0.443
0.436
-3.22
